Molecular target: BRD4 BD1 (Homo sapiens, UniProt O60885)
Test: AlphaScreen binding assay, BRD4 Bromodomain 1
Please respond with reported IC50 for every item in the list.

Use the examples below as a reference point.
compound_structure_string	recorded_value
COc1ccc(F)c(OC(=O)N2C[C@H](C)N(C(C)=O)c3ccc(-c4cnn(C5CC5)c4)cc32)c1	100 to 1000 nM
COC(=O)N1c2ccc(-c3cnn(CC(N)=O)c3)cc2N(C(=O)OC(C)C)C[C@@H]1C	100 to 1000 nM
CC(=O)N1c2ccc(-c3cc(N4CCCS4(=O)=O)cc(C(F)(F)F)c3)cc2N(C(=O)OC(C)C)C[C@@H]1C	100 to 1000 nM
COc1cc(CN2C[C@H](C)N(C(C)=O)c3ccccc32)cc(OC)c1	> 10000 nM
COC(=O)N1c2ccc(-c3ccc(N4CCS(=O)(=O)CC4)cc3)cc2N(C(=O)OC(C)C)C[C@@H]1C	100 to 1000 nM
CC(=O)N1c2ccc(-c3ccn4ccnc4n3)cc2N(C(=O)c2ccco2)C[C@@H]1C	> 10000 nM

Let us move to another entry and its IC50.
Prompt: Read off the recorded IC50 for CC(=O)N1c2ccc(-c3cnn(CC4(C)COC4)c3)cc2N(C(=O)OC(C)C)C[C@@H]1C
Completion: 100 to 1000 nM
